// reported IC50 for each item listed
test system: MRC5; test: Antiviral activity determined by plaque reduction assay of HCMV (AD-169) in MRC-5 cells; assay type: functional; settings: Homo sapiens, read-out: ID50 (the source's name)
measurement.kind: IC50

>>> reported("COC(CO)OCn1cnc2c(O)nc(N)nc21 (configuration not stated)")
"> 100 µg/mL"
>>> reported("Nc1ccn(COCOCP(=O)([O-])[O-])c(=O)n1.[Na+].[Na+]")
"> 100 µg/mL"
>>> reported("Nc1nc(O)c2ncn(COC(CO)OCP(=O)([O-])[O-])c2n1.[Na+].[Na+] (configuration not stated)")
"0.9 µg/mL"
>>> reported("Nc1ncnc2c1ncn2COCOCP(=O)([O-])[O-].[Na+].[Na+]")
"> 100 µg/mL"
>>> reported("N.Nc1ccn(CC(CO)CCP(=O)(O)O)c(=O)n1 (configuration not stated)")
"> 100 µg/mL"
>>> reported("Cc1cn(COCOCP(=O)([O-])[O-])c(=O)[nH]c1=O.[Na+].[Na+]")
"> 100 µg/mL"
>>> reported("N.Nc1nc(O)c2ncn(CC(CO)CCP(=O)(O)O)c2n1 (configuration not stated)")
"> 100 µg/mL"
>>> reported("Nc1nc(O)c2ncn(COCOCP(=O)([O-])[O-])c2n1.[Na+].[Na+]")
"5 µg/mL"
>>> reported("N.Nc1ncnc2c1ncn2CC(CO)CCP(=O)(O)O (configuration not stated)")
"> 100 µg/mL"
>>> reported("Nc1nc2c(ncn2CCOCP(=O)(O)O)c(=O)[nH]1")
"0.04 µg/mL"
>>> reported("CC(OCn1cnc2c(O)nc(N)nc21)OCP(=O)(O)O (configuration not stated)")
"> 100 µg/mL"
>>> reported("Nc1nc2c(ncn2COCCO)c(=O)[nH]1")
"38.4 µg/mL"
